assay: modulators of S6 phosphorylation in cells, primary screen, cell-based, A549, cytoblot, luminescence, serum-stimulated (AID 1158); details: A549 phospho-S6 cytoblot, 5 h, higher = more signal;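 further: serum-stimulated A549 lung adenocarcinoma cells; signal is phosphorylated S6 detected by cytoblot immunostaining with HRP secondary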
Would you kindly list z-score for each of these molecules?
Answers are plain numbers.

Field: example entries. Status: answers known.
INSERT INTO results (molecule, numeric_readout) VALUES
  ('COc1ccc(C(O)C2C=CC3C(=O)N(Cc4ccccc4)C(=O)C3N2n2cnnc2)c2ccccc12 (stereo not drawn)', 2.01),
  ('COC(=O)C1(Cc2ccccc2)C=C2C(=C(C(C)C)C(=O)C2C)CN1 (stereo not drawn)', 0.128);

Consider the additional molecule presented here.
Incoming: Give a short answer stating reported z-score for CC(C)C(O)C1C=CC2C(=O)N(C)C(=O)C2N1N(c1ccccc1)c1ccccc1 (stereo not drawn) .
Outgoing: -1.38

----------
biological target: Focal adhesion kinase 1 (Homo sapiens); experiment: small-molecule microarray binders of FAK, primary screen, biochemical, 635/667 nm fluorescence, BSA, DTT (AID 1130); settings: PTK2 binding, 635 nm fluorescence, higher = more signal;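 further: composite of spot emission at 667 nm and signal to noise over triplicate slides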
Ranges used to classify composite z-score: bottom bin (below 0.06), middle bin (0.06 to below 0.5), top bin (0.5 or more)

Solved entries:
INSERT INTO results (molecule, subject_of_test, assigned_label) VALUES
  ('C=CCC(OC(C)=O)[C@@H]1[C@@H](N(Cc2cc3ccccc3o2)C(=O)c2ccc(C)cc2)c2cc(OCCCO)ccc2N1C(=O)Cc1ccc2ccccc2c1 (some centres undefined)', 'Focal adhesion kinase 1 (Homo sapiens)', 'middle bin'),
  ('O=C1c2ccccc2[C@](Cc2ccccc2I)(C(=O)NCCN2CCOCC2)[C@H](c2ccc(CO)cc2)N1Cc1ccccc1', 'Focal adhesion kinase 1 (Homo sapiens)', 'top bin');

Incoming: Dear colleague, I would appreciate it if you could identify the bin for CCCCN1CC=CC23O[C@@H]4C=CCOC(=O)[C@@H]4[C@H]2C(=O)N(C(C)CO)[C@@H]3C1=O (some centres undefined) and reply at your convenience.
Outgoing: bottom bin

Incoming: Band for the recorded composite z-score of O=C1OCC=C[C@H]2OC34C=CCN(Cn5nnc6ccccc65)C(=O)[C@H]3N(CCCCCCO)C(=O)[C@@H]4[C@@H]12 (some centres undefined) ?
Outgoing: bottom bin

Incoming: Determine which band this molecule sits in: C=CCOC(=O)[C@@H]1[C@H]2C(=O)O[C@H](c3ccccc3)[C@H](c3ccccc3)N2[C@H](c2ccc(OCCOC(=O)[C@H]3C[C@H]4C(=O)N[C@@H](CCCCN(C)C)C(=O)N4[C@H]3c3cccc(OCCO)c3)cc2)[C@@]12C(=O)Nc1ccc(I)cc12
Outgoing: middle bin

Incoming: Entry CN1C(=O)C2C=CC(C(O)c3c(F)cccc3Cl)N(Nc3ccccc3)C2C1=O (centres undefined) belongs to which category?
Outgoing: middle bin

----------
assay: S. cerevisiae growth modulation with rapamycin, primary screen, strain BY4716, OD600, 96 h (AID 1091); settings: called active from +8 up or from −8 down; further: test concentration not given here
Calls of active or inactive are those of the source.
Hi there, use one of these labels in your reply, thanks! T (active), F (inactive)

Incoming: For this compound, state the assay outcome: CCOC(=O)C[C@H]1[C@H](OC(=O)c2ccc(-c3ccccc3)cc2)[C@@H](NC(=O)c2ccc3ccccc3c2)c2cc(OCCCO)ccc2N1C(=O)c1ccc2ccccc2n1
Outgoing: F

Incoming: Entry C=CCN1C(=O)[C@@]2(O[C@@H](CCn3cc([C@H](O)c4ccccc4)nn3)[C@H]([Si](C)(C)c3ccc(OC)cc3)[C@H]2C)c2ccccc21 : call = ?
Outgoing: F

Incoming: Could you please tell me the result logged for O=C1C2C=CC(C(O)c3cc(C(F)(F)F)cc(C(F)(F)F)c3)N(Nc3ccc([N+](=O)[O-])cc3)C2C(=O)N1c1ccccc1 (centres undefined) in this assay?
Outgoing: T

Incoming: Recorded test outcome, item CCOC(=O)C[C@H]1[C@H](OC(=O)c2ccc(-c3ccccc3)cc2)[C@@H](NC(=O)C2CCCCC2)c2cc(OCCCO)ccc2N1C(=O)c1ccccc1
Outgoing: F

Incoming: Call for entry Cc1ccc(S[C@]2(C(=O)NC(C)C)CC(=O)N(C3Cc4ccccc4C3)[C@@H]2c2ccc(CO)cc2I)cc1 :
Outgoing: F

Incoming: Tell me the recorded outcome of this test for C=C(C(=O)CC[C@H](OC(C)=O)c1cccc(OCCO)c1)C(C)C .
Outgoing: F

Incoming: // outcome(item) with item = O=C1O[C@@H](c2ccccc2)[C@@H](c2ccccc2)N2[C@@H](c3ccccc3OCCO)[C@]3(C(=O)Nc4ccc(C#CCCO)cc43)[C@@H](C(=O)Nc3nc4ccccc4s3)[C@H]12
Outgoing: F

----------
Can you tell me composite z-score for the items I'm about to list?
test: small-molecule microarray binders of probe aEGFR, primary screen, biochemical, biotinylated probe, 635/667 nm fluorescence (AID 1097); conditions: higher = more signal;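 further: probe is a biotinylated anti-EGFR antibody binding compounds printed on slides; score combines fluorescence near 667 nm and signal to noise of each spot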
Numbers only.

INSERT INTO measurements (compound, numeric_readout) VALUES
  ('C=CC[C@@]12N=C(c3ccc(OCCCO)cc3)O[C@@H]1c1ccccc1N(CCS(=O)(=O)c1ccccc1)C2=O', 0.0153);

Your task in this section: give composite z-score for each listed record.
1. CC(C)(C)OC(=O)CC[C@]1(C(=O)N2CCOCC2)N=C(c2ccc(OCCCO)cc2)O[C@H]1c1ccccc1
2. O=C(CS)NCCCCCCNC(=O)[C@@H]1C[C@@H]2C(=O)N3CCC[C@H]3C(=O)N2[C@@H]1c1cccc(OCCO)c1
3. COC(=O)[C@@]1(Cc2ccc(OC)cc2)[C@H]2c3cc(C(=O)N(C)C)n(CCc4c[nH]c5ccc(O)cc45)c3C[C@H]2CN1C(=O)c1ccccc1
4. CCCCN1CC=CC23O[C@@H]4/C=C\CCC(C)OC(=O)C4[C@H]2C(=O)N(CCCCCCO)[C@@H]3C1=O (some centres undefined)

Outgoing:
[-0.0656, 0.0195, 0.102, -0.313]

Below are some compounds; for each one, tell me its composite z-score.
1. CC=CC(O)C1C=CC2C(=O)N(c3ccccc3)C(=O)C2N1Nc1ccccc1 (centres undefined)
2. COc1ccccc1CN1C(=O)c2ccccc2[C@](Cc2ccccc2I)(C(=O)NC(C)C)[C@@H]1c1ccc(CO)cc1
3. CC(C)N1CC=CC23O[C@@H]4C=CCOC(=O)[C@@H]4[C@H]2C(=O)N(C(C)CO)[C@@H]3C1=O (some centres undefined)
4. COCCOC(=O)N1C(=O)[C@@]2(c3cc(C#Cc4ccc(OC)cc4)ccc31)[C@H](C(=O)N1CCN(c3ncccn3)CC1)[C@H]1C(=O)O[C@H](c3ccccc3)[C@H](c3ccccc3)N1[C@@H]2c1ccccc1OCCO
5. NCCCCCCNC(=O)[C@H]1C[C@H]2C(=O)N[C@@H](Cc3ccccc3)C(=O)N2[C@H]1c1ccc(O)cc1
6. C=CCN1C(=O)[C@@]2(O[C@@H](CCn3cc([C@H](O)c4ccccc4)nn3)[C@H]([Si](C)(C)c3ccc(OC)cc3)[C@H]2C)c2ccccc21

Outgoing:
0.113
0.0583
-0.199
-0.0382
-0.0685
-0.094

Batch lookup, composite z-score per entry.
1. C=C(COC)/C(=C/C[C@@H](OC(=O)c1ccncc1)c1ccc(OCCO)cc1)c1cnc2ccccc2c1
2. COCCOC(=O)N1C(=O)[C@@]2(c3ccccc31)[C@H](C(=O)N1CCN(c3ncccn3)CC1)[C@H]1C(=O)O[C@H](c3ccccc3)[C@H](c3ccccc3)N1[C@@H]2c1ccc(OCCO)cc1

Outgoing:
[-0.0531, 0.325]

Incoming: Item O=C1NCC(=O)N2[C@@H]1C[C@@H](C(=O)O)[C@H]2c1ccc(O)cc1 : provide composite z-score
Outgoing: -0.326

----------
What composite z-score was measured for each of the following?
molecular target: Left-right determination factor 2 (Homo sapiens); assay: LEFTY2 binders on small-molecule microarrays, primary screen, biochemical, small-molecule microarray, 635 nm fluorescence scan (AID 1110); conditions: LEFTY2 binding, higher = more signal
Give bare numbers.

Answered cases to consult:
INSERT INTO results (compound, measurement_name, numeric_readout) VALUES
  ('CCCC[C@@H]1C[C@H]1[C@@H](NC(=O)c1ccccc1)c1ccc(Cl)cc1', 'composite z-score', -1.86),
  ('[N-]=[N+]=NCc1ccccc1C[C@@]1(C(N)=O)N=C(c2ccc(OCCCO)cc2)O[C@@H]1c1ccccc1CN=[N+]=[N-]', 'composite z-score', 0.144),
  ('Cc1ccc(S[C@]2(C(=O)NCCN3CCOCC3)CC(=O)N(Cc3ccccc3C(F)(F)F)[C@@H]2c2ccc(CO)cc2I)cc1', 'composite z-score', -1.49),
  ('[N-]=[N+]=NCc1ccccc1C[C@@]1(C(=O)NCCN2CCOCC2)N=C(c2ccc(OCCCO)cc2)O[C@@H]1c1ccccc1N=[N+]=[N-]', 'composite z-score', -0.429),
  ('CN(C)CCCN1C(=O)[C@@]2(c3ccc([N+](=O)[O-])cc3)CC(=O)N(CC34CC5CC(CC(C5)C3)C4)[C@@H]2c2ccc(CO)cc21', 'composite z-score', -0.741),
  ('COc1ccc(NN2C(C(O)c3ccco3)C=CC3C(=O)N(C4CCCCC4)C(=O)C32)cc1 (centres undefined)', 'composite z-score', 0.519),
  ('C=C[C@H](COC(C)=O)NS(=O)(=O)c1ccc(Br)cc1', 'composite z-score', 0.0605),
  ('COc1ccc(C(O)C2C=CC3C(=O)N(c4ccccc4)C(=O)C3N2Nc2ccc(C#N)cc2)c2ccccc12 (centres undefined)', 'composite z-score', -0.199);

Fill in composite z-score for each of the 3 compounds listed.
1. COC(=O)[C@@]1(Cc2ccc(F)cc2)[C@H]2c3cc(C(=O)N4CCCC4)n(CCF)c3C[C@H]2CN1C(=O)c1ccccc1
2. C=CCC(OC(C)=O)[C@@H]1[C@@H](N(Cc2ccc(-c3ccccc3)cc2)C(=O)c2cccc3ccccc23)c2cc(OCCCO)ccc2N1C(=O)Cc1ccc2ccccc2c1 (some centres undefined)
3. C=CC[C@]1(C(=O)N(C)C)N=C(c2ccc(OCCCO)cc2)O[C@H]1c1ccccc1N=[N+]=[N-]

Outgoing:
-0.359
-0.304
-0.406

The values you see were collected from PubChem BioAssay.
